Biological target: Histone-lysine N-methyltransferase EZH2 (Homo sapiens, UniProt O75530+Q15022+Q15910)
Sequence (Q15910 whole entry, the tested form may be a part, one chain of several): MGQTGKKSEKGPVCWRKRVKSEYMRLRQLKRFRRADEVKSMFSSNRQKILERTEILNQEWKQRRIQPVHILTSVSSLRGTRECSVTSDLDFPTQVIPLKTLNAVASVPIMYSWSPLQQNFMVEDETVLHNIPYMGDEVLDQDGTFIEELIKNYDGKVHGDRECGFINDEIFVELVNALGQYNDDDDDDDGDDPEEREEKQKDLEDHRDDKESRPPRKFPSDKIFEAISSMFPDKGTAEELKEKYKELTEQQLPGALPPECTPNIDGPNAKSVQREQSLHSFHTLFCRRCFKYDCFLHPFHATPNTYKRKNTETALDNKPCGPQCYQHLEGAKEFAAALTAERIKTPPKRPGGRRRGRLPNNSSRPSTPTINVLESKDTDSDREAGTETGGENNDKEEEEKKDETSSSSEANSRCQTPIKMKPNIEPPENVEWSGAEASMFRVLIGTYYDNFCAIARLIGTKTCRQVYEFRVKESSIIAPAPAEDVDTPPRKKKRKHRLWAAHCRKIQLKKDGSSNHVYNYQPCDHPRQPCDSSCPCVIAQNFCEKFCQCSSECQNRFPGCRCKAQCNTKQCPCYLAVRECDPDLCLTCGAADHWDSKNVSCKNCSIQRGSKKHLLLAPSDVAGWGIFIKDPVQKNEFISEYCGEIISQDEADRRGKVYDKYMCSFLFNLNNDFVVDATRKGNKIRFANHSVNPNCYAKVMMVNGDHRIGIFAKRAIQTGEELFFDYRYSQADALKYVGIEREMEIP
Assay: Inhibition of EZH2 histone methyltransferase activity of EZH2/EED/SUZ12 protein complex (unknown origin) using histone H3 peptide as substrate (21 to 44 residues) in presence of [3H]-S-adenosylmethionine after 2 hrs by scintillation proximity assay
measurement.name: IC50

Sample answers from the record:
CCCc1cc(C)[nH]c(=O)c1CNC(=O)c1cc(-c2ccc(N3CCN(C(C)C)CC3)nc2)cc2c1cnn2C
190 nM
Cc1[nH]c(=O)c(CNC(=O)c2cc(-c3ccc(N4CCN(C(C)C)CC4)nc3)cc3c2cnn3C(C)C)c2c1CCCC2
> 2500 nM
CCCc1cc(C)[nH]c(=O)c1CNC(=O)c1nn(C(C)C)c2ccc(-c3ccc(N4CCN(C(C)C)CC4)nc3)cc12
> 5000 nM
CCc1cc(C)c(CNC(=O)c2cc(-c3ccc(N4CCN(C(C)C)CC4)nc3)cc3c2cnn3C(C)C)c(=O)[nH]1
73 nM
Cc1cc(C(C)C)c(CNC(=O)c2cc(-c3ccc(N4CCN(C(C)C)CC4)nc3)cc3c2cnn3C(C)C)c(=O)[nH]1
< 10 nM
CCCc1cc(C)[nH]c(=O)c1CNC(=O)c1cc(-c2ccc(C(F)(F)F)cn2)cc2c1cnn2C(C)C
64 nM
Cc1cc(O)c(CNC(=O)c2cc(-c3ccc(N4CCN(C(C)C)CC4)nc3)cc3c2cnn3C(C)C)c(=O)[nH]1
> 10000 nM
CCCc1cc(C)[nH]c(=O)c1CNC(=O)c1cc(-c2ccc(N3CCN(C(C)C)CC3)nc2)cc2c1cnn2C(CC)CC
< 10 nM

# context switch: different compound, same IC50
The compound listed as Cc1[nH]c(=O)c(CNC(=O)c2cc(-c3ccc(N4CCN(C(C)C)CC4)nc3)cc3c2cnn3C(C)C)c(C)c1C shows IC50 equal to 328 nM

Cited source for all entries: ChEMBL document CHEMBL4477241
